Tested on: OVCAR-8 ovarian
Assay text: NCI tumour cell line growth inhibition, 48 h

>  <Compound>
N#C/C(=C\c1cccc(Cl)c1Cl)c1ccccc1

>  <Assayed system>
OVCAR-8 ovarian

>  <TGI>
> 100 µM

$$$$
>  <Compound>
COc1cccc(C2SC(N)=Nc3c2c(C)nn3C(=O)c2ccccc2O)c1 (stereo unspecified)

>  <Assayed system>
OVCAR-8 ovarian

>  <TGI>
> 10 µM

$$$$
>  <Compound>
CCOP(=O)(OCC)C(F)(F)c1ccc(CC(NC(=O)OC(C)(C)C)C(=O)O)cc1 (stereo unspecified)

>  <Assayed system>
OVCAR-8 ovarian

>  <TGI>
> 10 µM

$$$$
>  <Compound>
NC(=O)c1ccccc1NC(=O)C(=O)C(C(=O)c1ccc(Cl)c(Cl)c1)C1OC(=O)c2ccccc21 (stereo unspecified)

>  <Assayed system>
OVCAR-8 ovarian

>  <TGI>
> 100 µM

$$$$
>  <Compound>
Nc1c(C(=O)Nc2cccc(C(F)(F)F)c2)sc2nc3c(cc12)CCCCC3

>  <Assayed system>
OVCAR-8 ovarian

>  <TGI>
19.8 µM

$$$$
>  <Compound>
O=C(/C=C/c1ccc([N+](=O)[O-])cc1)c1ccc(NCc2nc3ccccc3[nH]2)cc1

>  <Assayed system>
OVCAR-8 ovarian

>  <TGI>
12.9 µM

$$$$
>  <Compound>
CCCCN(CCCC)C(=O)C(=O)C(C(=O)c1ccc(OC)cc1)c1ccc(OC)cc1 (stereo unspecified)

>  <Assayed system>
OVCAR-8 ovarian

>  <TGI>
> 100 µM

$$$$
>  <Compound>
Cn1c(=O)c2c(nc3n2CC(C(=O)O)N3)n(C)c1=O (stereo unspecified)

>  <Assayed system>
OVCAR-8 ovarian

>  <TGI>
> 100 µM

$$$$
>  <Compound>
Cc1cc(I)cc(CN(CCCN(C)C)C(C)C)c1O

>  <Assayed system>
OVCAR-8 ovarian

>  <TGI>
> 100 µM

$$$$
>  <Compound>
CN1CC[C@@H](NC(=O)Nc2ccc(C#N)cc2)C[C@@H]1c1nc2ccccc2[nH]1

>  <Assayed system>
OVCAR-8 ovarian

>  <TGI>
> 100 µM

$$$$
>  <Compound>
CCC(=O)NCC1CCCN2CCCCC12 (stereo unspecified)

>  <Assayed system>
OVCAR-8 ovarian

>  <TGI>
> 100 µM

$$$$
>  <Compound>
O=C(c1ccccn1)C1(N2CCCCC2)CCCCC1

>  <Assayed system>
OVCAR-8 ovarian

>  <TGI>
> 100 µM

$$$$
>  <Compound>
COc1ncc(/C=C2\OC(=O)c3ccccc32)c(OC)n1

>  <Assayed system>
OVCAR-8 ovarian

>  <TGI>
> 100 µM

$$$$
>  <Compound>
COC(=O)CC(c1ccccc1)C1(c2ccccc2)SCCS1 (stereo unspecified)

>  <Assayed system>
OVCAR-8 ovarian

>  <TGI>
> 290 µM

$$$$
>  <Compound>
CC(C)(C)c1cc2c(O)c3cccc4c(=O)c5cccc6c5-c(c34)c2c(c1)c6=O

>  <Assayed system>
OVCAR-8 ovarian

>  <TGI>
> 100 µM

$$$$
>  <Compound>
CCCCCCCCCCn1cc[n+](C)c1

>  <Assayed system>
OVCAR-8 ovarian

>  <TGI>
15.8 µM

$$$$
>  <Compound>
CCOC(=S)SCC(=O)O

>  <Assayed system>
OVCAR-8 ovarian

>  <TGI>
> 100 µM

$$$$
>  <Compound>
COc1cc(C2CC(C)(O)Oc3cc4c(cc32)OCO4)cc(OC)c1OC (stereo unspecified)

>  <Assayed system>
OVCAR-8 ovarian

>  <TGI>
6.01 µM

$$$$
>  <Compound>
COc1ccc2[nH]cc(/C=C(/C)c3ccncc3)c2c1

>  <Assayed system>
OVCAR-8 ovarian

>  <TGI>
> 100 µM

$$$$
>  <Compound>
COc1ccc(OC)c(N2CC(N)C2=O)c1 (stereo unspecified)

>  <Assayed system>
OVCAR-8 ovarian

>  <TGI>
> 100 µM

$$$$
>  <Compound>
O=C1CCC2(c3ccc(Cl)cc3)Nc3ccncc3N12 (stereo unspecified)

>  <Assayed system>
OVCAR-8 ovarian

>  <TGI>
> 10 µM

$$$$
>  <Compound>
Oc1ccc(Cc2cc(Cc3ccc(O)cc3)cc(Cc3ccc(O)cc3)c2)cc1

>  <Assayed system>
OVCAR-8 ovarian

>  <TGI>
> 50 µM

$$$$
>  <Compound>
CC1(C)O[C@H]2OC(CO[Si](C)(C)C(C)(C)C)C(N=[N+]=[N-])[C@H]2O1 (stereo partly specified)

>  <Assayed system>
OVCAR-8 ovarian

>  <TGI>
38.1 µM

$$$$
>  <Compound>
CC(=O)Nn1c(=S)[nH]c2ccccc21

>  <Assayed system>
OVCAR-8 ovarian

>  <TGI>
> 100 µM

$$$$
>  <Compound>
C[C@]12CC[C@H](O)CC1=CC[C@@H]1[C@@H]2CC[C@]2(C)C(=N/N)/C(=N\O)C[C@@H]12

>  <Assayed system>
OVCAR-8 ovarian

>  <TGI>
> 100 µM

$$$$
>  <Compound>
O=C(O)c1nc2nc(Cl)c(Cl)nc2[nH]1

>  <Assayed system>
OVCAR-8 ovarian

>  <TGI>
> 100 µM

$$$$
>  <Compound>
CCCOc1cc2ccccc2cc1C(=O)Nc1nc(N)c2c(ccc3nccc32)[nH]1

>  <Assayed system>
OVCAR-8 ovarian

>  <TGI>
1.69 µM

$$$$
>  <Compound>
C[C@]12CCC3C4=C(CCC3C1CCC2=O)C(=O)[C@H]1O[C@H]1C4=O (stereo partly specified)

>  <Assayed system>
OVCAR-8 ovarian

>  <TGI>
5.59 µM

$$$$
>  <Compound>
Nn1c(Nc2ccc(S(=O)(=O)Nc3ncccn3)cc2)nnc(/C=C/c2c(O)ccc3ccccc23)c1=O

>  <Assayed system>
OVCAR-8 ovarian

>  <TGI>
> 100 µM

$$$$
>  <Compound>
COc1ccc(/C=c2\sc3n(c2=O)CCN=3)cc1

>  <Assayed system>
OVCAR-8 ovarian

>  <TGI>
> 100 µM

$$$$
>  <Compound>
NC1(c2cc3ccccc3s2)CCCC1

>  <Assayed system>
OVCAR-8 ovarian

>  <TGI>
> 100 µM

$$$$
>  <Compound>
Cc1cccc(C)c1NC(=O)CCCC(=O)C1/C(=N/NC(=O)CC#N)CCC/C1=N\NC(=O)CC#N (stereo unspecified)

>  <Assayed system>
OVCAR-8 ovarian

>  <TGI>
> 100 µM

$$$$
>  <Compound>
COCCOc1ccc(-c2nc3ccc(-c4nc5ccc(N6CCN(C)CC6)cc5[nH]4)cc3[nH]2)cc1

>  <Assayed system>
OVCAR-8 ovarian

>  <TGI>
23.4 µM

$$$$
>  <Compound>
Cc1cc(Nc2ccc(S(=O)(=O)O)c3cc(S(=O)(=O)O)cc(S(=O)(=O)O)c23)c2ccccc2n1

>  <Assayed system>
OVCAR-8 ovarian

>  <TGI>
> 100 µM

$$$$
>  <Compound>
COc1cc(/C(C#N)=C/c2nc3c(N4CCOCC4)nc(Cl)nc3n2C)cc(OC)c1OC

>  <Assayed system>
OVCAR-8 ovarian

>  <TGI>
31.3 µM

$$$$
>  <Compound>
O=C(CCCSc1nc(-c2ccccc2)cc(-c2ccccc2)n1)NO

>  <Assayed system>
OVCAR-8 ovarian

>  <TGI>
18.3 µM

$$$$

###

Here, each record is paired with measured TGI data.
Test system: COLO 205 colon
Assay text: NCI tumour cell line growth inhibition, 48 h
Quantity name: TGI

>  <Molecule>
CCC(=O)NCC1CCCN2CCCCC12 (stereo not given)

>  <Assayed system>
COLO 205 colon

>  <Result>
> 100 µM

$$$$
>  <Molecule>
C=CC1(CC/C(=C\[N+](=O)[O-])c2ccc(OC)c(OC)c2)OCC(C)(C)CO1

>  <Assayed system>
COLO 205 colon

>  <Result>
43.4 µM

$$$$
>  <Molecule>
Cn1ccc2c3c(Oc4ccc(NC(N)=O)cc4)ccnc3ccc21

>  <Assayed system>
COLO 205 colon

>  <Result>
> 100 µM

$$$$
>  <Molecule>
COP(=O)(OC)C1=c2c(C)noc2=C2C=COC2C1=O (stereo not given)

>  <Assayed system>
COLO 205 colon

>  <Result>
> 100 µM

$$$$
>  <Molecule>
Nc1c(C(=O)Nc2cccc(C(F)(F)F)c2)sc2nc3c(cc12)CCCCC3

>  <Assayed system>
COLO 205 colon

>  <Result>
> 100 µM

$$$$
>  <Molecule>
C=C(C)CCOC(c1ccccc1)(c1ccccc1)c1ccccc1

>  <Assayed system>
COLO 205 colon

>  <Result>
> 100 µM

$$$$
>  <Molecule>
N#CC(Cc1ccccc1)N(CCC1=CCCCC1)C(c1ccccc1)c1ccccc1 (stereo not given)

>  <Assayed system>
COLO 205 colon

>  <Result>
> 100 µM

$$$$
>  <Molecule>
C/C(=N/Nc1ccc([N+](=O)[O-])cc1[N+](=O)[O-])C(CC(C(=O)NCc1ccccc1)/C(C)=N\Nc1ccc([N+](=O)[O-])cc1[N+](=O)[O-])C(=O)NCc1ccccc1 (stereo not given)

>  <Assayed system>
COLO 205 colon

>  <Result>
27.8 µM

$$$$
>  <Molecule>
Cc1ccc(/C=C/C(=O)c2cccc3ccccc23)cc1

>  <Assayed system>
COLO 205 colon

>  <Result>
56.4 µM

$$$$
>  <Molecule>
O=CNc1ccc2c(c1)C(=O)c1ccccc1-2

>  <Assayed system>
COLO 205 colon

>  <Result>
> 100 µM

$$$$
>  <Molecule>
CC(=O)O/N=C(/C)c1ccccc1O

>  <Assayed system>
COLO 205 colon

>  <Result>
> 100 µM

$$$$
>  <Molecule>
C=C1CCN2CC[C@@H](OC(=O)/C(C)=C\C)[C@@H]12

>  <Assayed system>
COLO 205 colon

>  <Result>
> 100 µM

$$$$
>  <Molecule>
CCN(CC)C(=S)N/N=C/c1cc([N+](=O)[O-])ccc1O

>  <Assayed system>
COLO 205 colon

>  <Result>
18.1 µM

$$$$
>  <Molecule>
COC(=O)C(CCCN1C(=O)c2ccccc2C1=O)C(=O)OC

>  <Assayed system>
COLO 205 colon

>  <Result>
> 100 µM

$$$$
>  <Molecule>
O=C1CCCCN1c1ccccc1C#C/C=C\C#Cc1ccccc1C(F)(F)F

>  <Assayed system>
COLO 205 colon

>  <Result>
> 50 µM

$$$$
>  <Molecule>
CCCCCC[C@@H]1CCC2C(CO)[C@@H](O)CC[C@@H]2C1 (stereo not given in full)

>  <Assayed system>
COLO 205 colon

>  <Result>
35.1 µM

$$$$
>  <Molecule>
O=C(/C=C/c1ccc([N+](=O)[O-])cc1)c1ccc(NCc2nc3ccccc3[nH]2)cc1

>  <Assayed system>
COLO 205 colon

>  <Result>
7.71 µM

$$$$
>  <Molecule>
COc1ccc2cc1Oc1ccc(cc1)C[C@H]1c3cc(c(OC)cc3CCN1C)Oc1c(O)c(OC)cc3c1[C@H](C2)N(C)CC3

>  <Assayed system>
COLO 205 colon

>  <Result>
39.4 µM

$$$$
>  <Molecule>
c1ccc(Sc2ncnc3ccccc23)cc1

>  <Assayed system>
COLO 205 colon

>  <Result>
28.3 µM

$$$$
>  <Molecule>
CC(=O)N(C(=O)CC(=O)N1N=C(c2ccccc2)C(N=Nc2ccccc2[N+](=O)[O-])C1=O)c1ccc(Cl)cc1 (stereo not given)

>  <Assayed system>
COLO 205 colon

>  <Result>
> 10 µM

$$$$
>  <Molecule>
Cc1nnc(NC(=O)c2nc(S(=O)(=O)Cc3ccc(F)cc3)ncc2Cl)s1

>  <Assayed system>
COLO 205 colon

>  <Result>
3.68 µM

$$$$
>  <Molecule>
CC(=O)CC(OC(C)=O)C1=CCC2C(CC1C)OC(=O)C2C (stereo not given)

>  <Assayed system>
COLO 205 colon

>  <Result>
> 100 µM

$$$$
>  <Molecule>
CCOC(=O)C1=C(C)N(c2ccc(F)cc2F)[C@]2(C#N)C(O)=C(Cl)C(Cl)=C(O)[C@]12C#N

>  <Assayed system>
COLO 205 colon

>  <Result>
> 100 µM

$$$$
>  <Molecule>
CCCOc1cc2ccccc2cc1C(=O)Nc1nc(N)c2c(ccc3nccc32)[nH]1

>  <Assayed system>
COLO 205 colon

>  <Result>
0.481 µM

$$$$
>  <Molecule>
COc1ccc(C)cc1-c1cc(Sc2ccccc2)c(-c2cc(C)ccc2OC)o1

>  <Assayed system>
COLO 205 colon

>  <Result>
> 31.6 µM

$$$$
>  <Molecule>
C/C(=C\CBr)CCC(Br)C(C)(C)Br (stereo not given)

>  <Assayed system>
COLO 205 colon

>  <Result>
> 100 µM

$$$$
>  <Molecule>
N#Cc1c[nH]n2c(N=Nc3ccc(Cl)cc3)c(O)nc12

>  <Assayed system>
COLO 205 colon

>  <Result>
> 100 µM

$$$$
>  <Molecule>
Cc1ccnc(NS(=O)(=O)c2ccc(N=[N+]=[N-])cc2)n1

>  <Assayed system>
COLO 205 colon

>  <Result>
> 100 µM

$$$$
>  <Molecule>
Cc1ccccc1OC(C)C(=O)NN1C(=O)CSC1c1ccccc1 (stereo not given)

>  <Assayed system>
COLO 205 colon

>  <Result>
> 100 µM

$$$$
>  <Molecule>
Nc1c(-c2ccc(Cl)c(Cl)c2)c2ccc([N+](=O)[O-])cc2c(=O)n1-c1nc2ccccc2s1

>  <Assayed system>
COLO 205 colon

>  <Result>
2.89 µM

$$$$
